- ASSAY_PROTOCOL: Cytotoxicity to human fibroblasts and keratinocytes, MTT assay
- Assay type: cell-based
- TEST_SETTINGS: HaCat, HFF-1 and Heka cells, 0.78-100 μM
PARAMETER: IC50 at 48 h

Query :: Requested read-out: IC50 at 48 h. Entry: COc1cc(-c2[o+]c3cc(O)cc4c3c(c2OC2OC(CO)C(O)C(O)C2O)C=C(C(=O)O)O4)cc(OC)c1O (stereo not shown) [II-B, Carboxypyranomalvidin-3-glucoside]
Result :: > 100 µM

----------
- ASSAY_PROTOCOL: Determination of solar protection factor (SPF), spectrophotometric, Mansur equation
- Assay type: physicochemical
- TEST_SETTINGS: 1.0 mg in 5 mL ethanol, absorbance 290-320 nm, Mansur equation
PARAMETER: SPF
Reply briefly: the number, and no unit.

Would you please look over these solved cases?
COc1cc(-c2[o+]c3cc(O)cc4c3c(c2OC2OC(CO)C(O)C(O)C2O)C=C(C(=O)O)O4)cc(OC)c1O (stereo not drawn) [II-B, Carboxypyranomalvidin-3-glucoside]
13.92
COc1cc(-c2[o+]c3cc(O)cc4c3c(c2OC2OC(CO)C(O)C(O)C2O)C=C(/C=C/c2c(O)cc(O)c3c2OC(c2ccc(O)c(O)c2)C(O)C3)O4)cc(OC)c1O (stereo not drawn)
8.35

Consider the record given below.
Query :: Requested read-out: SPF. Entry: CC1=Cc2c(OC3OC(CO)C(O)C(O)C3O)c(-c3ccc(O)c(O)c3)[o+]c3cc(O)cc(c23)O1 (stereo not drawn) [III-A, Methylpyranocyanidin-3-glucoside]
Result :: 18.53

----------
- ASSAY_PROTOCOL: Determination of solar protection factor (SPF), spectrophotometric, Mansur equation
- Type: physicochemical
- TEST_SETTINGS: 1.0 mg in 5 mL ethanol, absorbance 290-320 nm, Mansur equation
- Experimental: Sample preparation 1.0 mg of all samples was weighed, transferred to a 5 mL volumetric flask, diluted to volume with ethanol, followed by ultra-sonication for 5 min. […] Where CF (correction factor) is 10, EE (A) is erythmogenic effect of radiation with wavelength λ, Abs is Spectrophotometric absorbance values at wavelength λ. The obtained absorbance values are multiplied with EE (λ)×1 (λ) and then their summation is taken and multiplied with correction factor to obtain the SPF values.
PARAMETER: SPF
Reply briefly: the number, and no unit.

Would you please look over these solved cases?
CN(C)c1ccc(C2=Cc3c(OC4OC(CO)C(O)C(O)C4O)c(-c4ccc(O)c(O)c4)[o+]c4cc(O)cc(c34)O2)cc1 (stereo not drawn) [V-C]
13
CN(C)c1ccc(/C=C/C=C/C2=Cc3c(OC4OC(CO)C(O)C(O)C4O)c(-c4ccc(O)c(O)c4)[o+]c4cc(O)cc(c34)O2)cc1 (stereo not drawn) [VIII-A]
14.78

Consider the record given below.
Query :: Requested read-out: SPF. Entry: O=C(O)C1=Cc2c(OC3OC(CO)C(O)C(O)C3O)c(-c3ccc(O)c(O)c3)[o+]c3cc(O)cc(c23)O1 (stereo not drawn) [II-A, Carboxypyranocyanidin-3-glucoside]
Result :: 20.71
